Biological target: HDAC7 (Homo sapiens, UniProt Q8WUI4)
Construct: purchased Reaction Biology
Sequence (Q8WUI4 1-952): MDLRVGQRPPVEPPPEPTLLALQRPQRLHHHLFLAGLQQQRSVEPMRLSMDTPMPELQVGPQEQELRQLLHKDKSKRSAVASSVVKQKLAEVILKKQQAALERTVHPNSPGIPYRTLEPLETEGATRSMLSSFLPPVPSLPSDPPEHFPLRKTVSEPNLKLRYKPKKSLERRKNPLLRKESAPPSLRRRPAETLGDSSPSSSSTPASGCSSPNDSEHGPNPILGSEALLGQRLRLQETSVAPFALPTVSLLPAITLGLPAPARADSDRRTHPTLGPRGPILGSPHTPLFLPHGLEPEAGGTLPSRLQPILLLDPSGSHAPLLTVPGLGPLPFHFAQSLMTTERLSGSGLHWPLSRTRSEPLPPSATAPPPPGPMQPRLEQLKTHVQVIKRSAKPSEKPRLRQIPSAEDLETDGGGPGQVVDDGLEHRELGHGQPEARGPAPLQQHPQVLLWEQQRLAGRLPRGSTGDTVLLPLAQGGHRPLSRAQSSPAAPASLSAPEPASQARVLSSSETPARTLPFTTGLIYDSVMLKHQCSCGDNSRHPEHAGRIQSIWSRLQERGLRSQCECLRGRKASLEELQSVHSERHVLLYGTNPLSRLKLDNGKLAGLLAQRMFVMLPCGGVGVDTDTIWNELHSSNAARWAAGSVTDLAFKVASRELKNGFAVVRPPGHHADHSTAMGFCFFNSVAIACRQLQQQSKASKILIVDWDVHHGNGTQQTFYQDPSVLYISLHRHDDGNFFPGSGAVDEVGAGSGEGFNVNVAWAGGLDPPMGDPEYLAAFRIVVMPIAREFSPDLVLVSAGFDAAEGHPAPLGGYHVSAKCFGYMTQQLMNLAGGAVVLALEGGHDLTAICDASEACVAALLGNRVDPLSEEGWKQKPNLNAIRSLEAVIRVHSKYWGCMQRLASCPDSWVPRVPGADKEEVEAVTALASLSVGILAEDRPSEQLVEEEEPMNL
Test: HDAC enzymatic assay (Reaction Biology), Class 2A substrate
Type: biochemical
Conditions: 10-dose response curve; read-out: Compound IC50 (M), HDAC7
readout: IC50

QUERY: Enter reported IC50 observed with HDAC7 (Homo sapiens, UniProt Q8WUI4) for `Cc1ncsc1-c1ccc([C@H](C)NC(=O)[C@@H]2C[C@@H](O)CN2C(=O)[C@@H](NC(=O)CCOCCOCCN(CCc2c[nH]c3ccccc23)Cc2ccc(/C=C/C(=O)NO)cc2)C(C)(C)C)cc1`
RESULT: 1.71e-05 M
